# protocol_notes: TIMS collisional cross section (CCS, N2) of the lipid ion; higher = larger ion cross section
# run_conditions: sample type: Liver; ionization mode: positive; one isomer drawn
quantity_name: TIMS collisional cross section (Å²)

[
  {
    "compound": "CCCC/C=C\\CCCCCCCC(=O)O[C@H](COC(=O)CCCCCCCCCCCCC)COC(=O)CCCCCCCCCCCCCCC [TG 14:0_14:1_16:0] (ion (formula + adduct): [C47H88O6+NH4] 1+)",
    "quantity_name": "TIMS collisional cross section",
    "obs_value": 299.8
  },
  {
    "compound": "CCCCCCC/C=C\\CCCCCCCC(=O)OC[C@@H](COC(=O)CCCCCCCCCCCCCC)OC(=O)CCCCCCCCCCCCCCC [TG 15:0_16:0_17:1] (ion (formula + adduct): [C51H96O6+NH4] 1+)",
    "quantity_name": "TIMS collisional cross section",
    "obs_value": 311.4
  },
  {
    "compound": "CCCC/C=C\\CCCCCCCC(=O)OC[C@H](COC(=O)CCCCCCC/C=C\\CCCCCCCC)OC(=O)CCCCCCC/C=C\\CCCCCC [TG 14:1_16:1_18:1] (ion (formula + adduct): [C51H92O6+NH4] 1+)",
    "quantity_name": "TIMS collisional cross section",
    "obs_value": 307.7
  }
]
